pIC50: −log10 of the molar value.
Assay system Epidermal growth factor receptor (Homo sapiens, UniProt P00533); read-out recorded as pIC50.
MEASUREMENT_NAME: pIC50

SMILES_RECORD: Clc1ccc(Cl)c(-c2cn3cccc(COc4nnc5ccc(Cl)nn45)c3n2)c1
MEASUREMENT_NAME: pIC50
VALUE_REPORTED: 4.85

SMILES_RECORD: Clc1ccc(-c2cn3cccc(COc4nnc5ccc(Cl)nn45)c3n2)c(Cl)c1
MEASUREMENT_NAME: pIC50
VALUE_REPORTED: 4.81

----------
TEST_SYSTEM: Proto-oncogene tyrosine-protein kinase receptor Ret (Homo sapiens, UniProt P07949)
Sequence (P07949 whole entry): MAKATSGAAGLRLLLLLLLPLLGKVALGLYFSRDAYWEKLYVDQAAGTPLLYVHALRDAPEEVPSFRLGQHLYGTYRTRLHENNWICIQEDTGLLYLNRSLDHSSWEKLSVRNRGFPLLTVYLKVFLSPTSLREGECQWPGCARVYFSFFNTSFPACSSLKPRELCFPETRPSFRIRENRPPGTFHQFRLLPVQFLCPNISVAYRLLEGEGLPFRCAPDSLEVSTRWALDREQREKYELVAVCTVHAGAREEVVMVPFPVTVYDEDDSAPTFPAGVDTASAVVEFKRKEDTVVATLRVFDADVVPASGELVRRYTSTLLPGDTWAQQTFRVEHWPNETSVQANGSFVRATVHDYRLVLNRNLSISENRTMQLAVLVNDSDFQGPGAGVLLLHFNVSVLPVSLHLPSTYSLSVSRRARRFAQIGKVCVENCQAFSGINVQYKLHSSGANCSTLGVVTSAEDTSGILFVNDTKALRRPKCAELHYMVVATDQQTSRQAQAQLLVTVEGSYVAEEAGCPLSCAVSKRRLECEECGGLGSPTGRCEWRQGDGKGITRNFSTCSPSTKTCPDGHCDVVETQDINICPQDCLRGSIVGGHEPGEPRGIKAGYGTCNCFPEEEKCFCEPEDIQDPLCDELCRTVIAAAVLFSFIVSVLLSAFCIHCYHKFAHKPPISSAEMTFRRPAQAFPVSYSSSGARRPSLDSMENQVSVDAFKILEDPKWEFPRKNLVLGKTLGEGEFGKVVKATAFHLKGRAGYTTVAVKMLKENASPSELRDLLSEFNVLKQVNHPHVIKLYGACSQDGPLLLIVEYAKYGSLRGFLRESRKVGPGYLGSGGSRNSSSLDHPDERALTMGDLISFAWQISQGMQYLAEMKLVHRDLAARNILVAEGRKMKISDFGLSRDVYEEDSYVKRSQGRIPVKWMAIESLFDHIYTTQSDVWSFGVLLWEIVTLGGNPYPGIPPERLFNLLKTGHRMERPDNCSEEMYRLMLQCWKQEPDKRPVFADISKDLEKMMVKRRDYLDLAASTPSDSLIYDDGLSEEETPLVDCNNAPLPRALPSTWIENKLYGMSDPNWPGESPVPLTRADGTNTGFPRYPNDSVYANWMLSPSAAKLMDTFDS
MEASUREMENT_NAME: IC50 (µM)
API: value field is a number in µM; no unit string.

INPUT: Data request, read-out IC50, for Clc1ccc(Cl)c(-c2cn3cccc(COc4nnc5ccc(Cl)nn45)c3n2)c1
OUTPUT: 12.2
